assay endpoint: melting point

Record excerpt, results attached:
• CCCC1=C(C#N)C(c2ccccc2Cl)c2c(n[nH]c2C2CCCCC2)N1 (stereo unspecified) = > 270 °C
• N#CC(N)=C(C#N)N=Cc1cnn(-c2ncc(C(F)(F)F)cc2Cl)n1 = 220 to 222 °C
• Cc1ccc(C(=O)N2CCC(c3ccccc3)=N2)cn1 = 86 to 87 °C
• CCOC(=O)Cc1nnc(-c2ccc(OC)cc2)n1-c1ccc(OC)cc1 = 156 °C
• O=C(O)C=CC1=CCCC([N+](=O)[O-])C1 (stereo unspecified) = 158 to 160 °C

API: the following record is the query input.
Qu. Quickly give me recorded melting point for "CCCCCCCCCCCCCCCCNC(=O)CC#N"
Ans. 95.5 to 96.5 °C
